Task for the reader: assign each of the following molecules its reported Emax.
test system: c-myc in 22RV-1 cells; experiment: Human c-myc ELISA assay; type: cell-based; conditions: Homo sapiens, 22Rv1, 18 h, read-out: Degradation of BRD4: Maximum inhibition (%) c-Myc ELISA in 22RV1 cells
Numbers only, in %.

Cc1ncsc1-c1ccc([C@H](C)NC(=O)[C@@H]2C[C@@H](O)CN2C(=O)[C@H](C(C)C)n2cc(-c3ccnc(O[C@H]4C[C@@H](NC(=O)C[C@@H]5N=C(c6ccc(Cl)cc6)c6c(sc(C)c6C)-n6c(C)nnc65)C4)n3)cn2)cc1
95
Cc1ncsc1-c1ccc([C@H](C)NC(=O)[C@@H]2C[C@@H](O)CN2C(=O)[C@@H](NC(=O)COCCCN2CCN(C(=O)C[C@@H]3N=C(c4ccc(Cl)cc4)c4c(sc(C)c4C)-n4c(C)nnc43)CC2)C(C)(C)C)cc1
87.5
Cc1sc2c(c1C)C(c1ccc(Cl)cc1)=N[C@@H](CC(=O)N[C@H]1C[C@@H](Oc3cc(-c4cnn([C@@H](C(=O)N5C[C@H](O)C[C@H]5C(=O)N[C@@H](C)c5ccc(-n6ccnc6C)cc5)C(C)C)c4)ccn3)C1)c1nnc(C)n1-2
17.3
Cc1ncsc1-c1ccc(CNC(=O)[C@@H]2C[C@@H](O)CN2C(=O)[C@@H](NC(=O)COCCN2CCC(c3ccc([C@@H](C)NC(=O)C[C@@H]4N=C(c5ccc(Cl)cc5)c5c(sc(C)c5C)-n5c(C)nnc54)cc3)CC2)C(C)(C)C)cc1
94

# batch size: 7; output Emax per entry
1. Cc1ncsc1-c1ccc(CNC(=O)[C@@H]2C[C@@H](O)CN2C(=O)[C@@H](NC(=O)COCCCNC(=O)C[C@@H]2N=C(c3ccc(Cl)cc3)c3c(sc(C)c3C)-n3c(C)nnc32)C(C)(C)C)cc1
2. Cc1ncsc1-c1ccc([C@H](C)NC(=O)[C@@H]2C[C@@H](O)CN2C(=O)[C@@H](NC(=O)[C@H]2CC[C@@H](COCCCNC(=O)C[C@@H]3N=C(c4ccc(Cl)cc4)c4c(sc(C)c4C)-n4c(C)nnc43)O2)C(C)(C)C)cc1
3. Cc1ncoc1-c1ccc([C@H](C)NC(=O)[C@@H]2C[C@@H](O)CN2C(=O)[C@@H](NC(=O)Cc2ccc(O[C@H]3C[C@H](NC(=O)C[C@@H]4N=C(c5ccc(Cl)cc5)c5c(sc(C)c5C)-n5c(C)nnc54)C3)cc2)C(C)(C)C)cc1
4. Cc1ncsc1-c1ccc([C@H](C)NC(=O)[C@@H]2C[C@@H](O)CN2C(=O)[C@H](C(C)C)n2cc(-c3cc(O[C@H]4C[C@@H](NC(=O)C[C@@H]5N=C(c6ccc(Cl)cc6)c6c(sc(C)c6C)-n6c(C)nnc65)C4)ccn3)cn2)cc1
5. Cc1ncsc1-c1ccc(CNC(=O)[C@@H]2C[C@@H](O)CN2C(=O)[C@@H](NC(=O)COCCOCCOCCCCOc2ccc(NC(=O)C[C@@H]3N=C(c4ccc(Cl)cc4)c4c(sc(C)c4C)-n4c(C)nnc43)cc2)C(C)(C)C)cc1
6. Cc1ncsc1-c1ccc([C@H](C)NC(=O)[C@@H]2C[C@@H](O)CN2C(=O)[C@@H](NC(=O)COCCCOCCN(C)C(=O)C[C@@H]2N=C(c3ccc(Cl)cc3)c3c(sc(C)c3C)-n3c(C)nnc32)C(C)(C)C)cc1
7. Cc1ncsc1-c1ccc(CNC(=O)C2C[C@@H](O)CN2C(=O)[C@@H](NC(=O)COc2ccccc2OCCCNC(=O)C[C@@H]2N=C(c3ccc(Cl)cc3)c3c(sc(C)c3C)-n3c(C)nnc32)C(C)(C)C)cc1 (stereo partly shown)

**Result**
1: 98; 2: 98.5; 3: 95.4; 4: 92; 5: 100; 6: 100; 7: 86.6

# batch size: 4; output Emax per entry
1. Cc1ncsc1-c1ccc(CNC(=O)[C@@H]2C[C@@H](O)CN2C(=O)[C@@H](NC(=O)COCCCOc2ccc(-c3cnc(NC(=O)C[C@@H]4N=C(c5ccc(Cl)cc5)c5c(sc(C)c5C)-n5c(C)nnc54)cn3)cc2F)C(C)(C)C)cc1
2. Cc1ncsc1-c1ccc([C@H](C)NC(=O)[C@@H]2C[C@@H](O)CN2C(=O)[C@@H](C(C)C)n2cc(-c3ccc(O[C@H]4C[C@H](NC(=O)C[C@@H]5N=C(c6ccc(Cl)cc6)c6c(sc(C)c6C)-n6c(C)nnc65)C4)nc3)cn2)cc1
3. Cc1ncsc1-c1ccc([C@H](C)NC(=O)[C@@H]2C[C@@H](O)CN2C(=O)C(C(C)C)n2cc(-c3cc(F)cc(O[C@@H](C)CNC(=O)C[C@@H]4N=C(c5ccc(Cl)cc5)c5c(sc(C)c5C)-n5c(C)nnc54)c3)cn2)cc1 (stereo partly shown)
4. Cc1ncsc1-c1ccc(CNC(=O)[C@@H]2C[C@@H](O)CN2C(=O)[C@H](C(C)C)n2cc(-c3cccc(OCCNC(=O)C[C@@H]4N=C(c5ccc(Cl)cc5)c5c(sc(C)c5C)-n5c(C)nnc54)c3)cn2)cc1

**Result**
94
98
92
96.5
